experiment: physchem; details: octan-1-ol/water, pH 7.4, LogD7.4
One threshold, 3, splits the recorded logD values: lower ones are Criterion met, equal or higher ones are Criterion not met.

{"compound": "O=C(c1cc(Cc2n[nH]c(=O)c3ccccc23)ccc1F)N1CCN(C(=O)C2CCOC2)CC1 (stereo not given)", "assignedClass": "Criterion met"}
{"compound": "c1ccc(CNc2nc3ccccc3[nH]2)cc1", "assignedClass": "Criterion met"}
{"compound": "O=C(NS(=O)(=O)Cc1ccccc1)N1CCC(N2CCC(Oc3ccc(Cl)c(Cl)c3)CC2)CC1", "assignedClass": "Criterion met"}
{"compound": "COc1ccc2nc(C)cc(OCC(=O)NCc3ccccc3)c2c1", "assignedClass": "Criterion not met"}
{"compound": "Cc1cc(NCc2ccccc2)nc2ccccc12", "assignedClass": "Criterion not met"}
{"compound": "CN(C)C(=O)N[C@H]1CC[C@H](CCN2CCN(c3ccc(Cl)c(Cl)c3)CC2)CC1", "assignedClass": "Criterion not met"}
{"compound": "CC(=O)[C@H]1CC[C@H]2[C@@H]3C[C@H](C)C4=CC(=O)CC[C@]4(C)[C@H]3[C@@H](O)C[C@]12C [MEDRYSONE]", "assignedClass": "Criterion not met"}
{"compound": "COCCN(C)Cc1ccc(Nc2ncc3cc(-c4ccncc4)ccc3n2)cc1", "assignedClass": "Criterion met"}
{"compound": "CNCc1ccc(-c2[nH]c3cc(F)cc4c3c2CCNC4=O)cc1 [RUCAPARIB]", "assignedClass": "Criterion met"}

---

test: physchem; settings: octan-1-ol/water, pH 7.4, LogD7.4

{"compound": "CC1CCC(CC(=O)Nc2cccc3ncccc23)CC1 (stereo not given)", "logD": 3.56}
{"compound": "Cc1ccc(NC(=O)c2ccc(C#N)cc2)cc1-n1cnc2ccc(N3CCN(C)CC3)cc2c1=O", "logD": 2.73}
{"compound": "NC(=O)C(NC(=O)C1(N)CCN(c2ncnc3[nH]ccc23)CC1)c1ccc(Cl)cc1 (stereo not given)", "logD": 2.2}
{"compound": "N#Cc1cccc(-c2cccc(-c3nn[nH]n3)c2)c1", "logD": 0.7}
{"compound": "CCCc1c(OCc2cccc(NC(=O)c3ccccc3C(=O)O)c2)ccc(C(C)=O)c1O", "logD": 1.9}

---

test: in vitro; details: human, liver microsomes
One threshold, 50 µL/min/mg, splits the recorded microsomal CLint values: lower ones are criterion met, equal or higher ones are criterion not met.

{"smilesStructure": "Nc1nc(Nc2ccc(F)c(Cl)c2)c2nc[nH]c2n1", "assignedClass": "criterion met"}
{"smilesStructure": "Cc1c(S(=O)(=O)c2ccc(Cl)cc2)c2cc(F)ccc2n1CC(=O)O", "assignedClass": "criterion met"}
{"smilesStructure": "O=C1CC2(CCCC2)CC(=O)N1CCCCN1CCN(c2ncccn2)CC1", "assignedClass": "criterion not met"}
{"smilesStructure": "O=c1[nH]c2c(O)ccc([C@@H](O)CNCCc3cccc(CNCc4ccccc4Cl)c3)c2s1", "assignedClass": "criterion met"}
{"smilesStructure": "CN(CCc1ccc(O)c2[nH]c(=O)sc12)CCN(C)C(=O)CCOCCc1ccccc1", "assignedClass": "criterion not met"}
{"smilesStructure": "COc1cccc(CNCc2cccc(CCNC[C@H](O)c3ccc(O)c4[nH]c(=O)sc34)c2)c1", "assignedClass": "criterion met"}
{"smilesStructure": "O=c1[nH]c2c(O)ccc([C@@H](O)CNCCCSCCOCCc3cccc4ccccc34)c2s1", "assignedClass": "criterion not met"}
{"smilesStructure": "Nc1nccc(-n2ccc3ccccc32)n1", "assignedClass": "criterion not met"}
{"smilesStructure": "CC(C)(Cc1cccc(CC(=O)NCc2cccc(-c3ccc(O)cc3)c2)c1)NC[C@H](O)c1ccc(O)c(NS(C)(=O)=O)c1", "assignedClass": "criterion not met"}
